target: T1, human claudin 18 splice variant 2 (CLDN18.2) (human); test: flow cytometry (Table 6); APC-conjugated secondary antibody; binding assay 1
T1 construct: also called claudin 18 isotype 2
Reported Max. binding [MFI] values for the following binders.
// return numeric value only (unit: MFI, not printed)

The cases that follow already have their Max. binding [MFI] on record.
# BINDER, MEASURED PARAMETER, NUMERIC READOUT
data = [
    ("IMAB362 (antibody, V domains shown, Chimeric human IgG1 kappa; CDR1 at 45-52); also called chim mAb362; chim mAB362) VH: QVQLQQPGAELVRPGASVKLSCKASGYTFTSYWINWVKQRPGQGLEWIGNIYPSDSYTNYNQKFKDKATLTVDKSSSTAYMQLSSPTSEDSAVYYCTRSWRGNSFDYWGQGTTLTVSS VL: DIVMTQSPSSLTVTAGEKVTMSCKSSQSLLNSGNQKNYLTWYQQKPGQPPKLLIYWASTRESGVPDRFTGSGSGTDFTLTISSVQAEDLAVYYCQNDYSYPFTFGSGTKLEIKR", "Max. binding [MFI]", 18500),
    ("chim mAB62 (antibody, V domains shown) VH: QVQLQQSGAELMKPGASVKISCKATGYTFSSYWIEWVKQRPGHGLEWIGEILPGSGSTNYNEKFKGKATFTADTSSNTAYMQLSSLTSEDSAVYYCARYDYPWFAYWGQGTLVTVSA VL: QIVLTQSPAIMSASPGEKVTITCSASSSVSYMHWFQQKPGTSPKLWIYSTSNLASGVPARFSGSGSGTSYSLTISRMEAEDAATYYCQQRSSYPPTFGGGTKLEIKR", "Max. binding [MFI]", 4080),
    ("chim mAB279 (antibody, V domains shown) VH: QVQLQQSGAELARPGASVKLSCKASGYTFTDYYINWVKQRTGQGLEWIGEIYPGSGNTYYNEKFKGKATLTADKSSSTAYMQLSSLTSEDSAVYFCARSYGAFDYWGQGTTLTVSS VL: DIVMTQSQKFMSTSVGDRVSITCKASQNVRTAVAWYQQKPGQSPKALIYLASNRHTGVPDRFTGSGSGTDFTLTISNVQSEDLADYFCLQHWNYPLTFGGGTKLEIKR", "Max. binding [MFI]", 4390),
]

IN: Request the reported Max. binding [MFI] associated with chim mAB308 (antibody, V domains shown) VH: QVQLQQSGPELVKPGASVKMSCKASGYTFTDYVISWVKQRTGQGLEWIGEIYPGSGSTYYNEKFKGKATLTADKSSNTAYMQLSSLTSEDSAVYFCARGVLLRAMDYWGQGTSVTVSS VL: DIVMSQSPSSLAVSAGEKVTMSCKSSQSLLNSRTRKNYLAWYQQKPGQSPKLLIYWASTRESGVPDRFTGSGSGTDFTLTISSVQAEDLAVYYCKQSYNLYTFGGGTKLEIKR
OUT: 15000

Source of measurements: patent US20180117174A1
